Reference source: ChEMBL document CHEMBL4411279

Reported IC50 values follow for various compounds
Tested on: MGC-803
test-method-notes: Antiproliferative activity against human MGC803 cells after 72 hrs by MTT assay
Type: functional, cell-based
test-conditions: MGC-803, 72 h
Field format: number, assumed µM, no unit text.

>  <structure-as-smiles>
CC(C)c1ccc(/C=C/C(=O)c2ccc(OCC(=O)N[C@H]3CCOC3=O)cc2)cc1

>  <data-value>
16.8

$$$$
>  <structure-as-smiles>
CC(C)(C)c1ccc(/C=C/C(=O)c2ccc(OCC(=O)N[C@H]3CCOC3=O)cc2)cc1

>  <data-value>
17.2

$$$$
>  <structure-as-smiles>
Cc1ccc(C(C)C)c(OCCSC(=S)N[C@H]2CCOC2=O)c1

>  <data-value>
43.4

$$$$

IC50 recorded for this compound, `COc1ccccc1/C=C/C(=O)c1ccc(OCC(=O)N[C@H]2CCOC2=O)cc1` , is 39.4

IC50 recorded for this compound, `O=C1OCC[C@@H]1NC(=S)SCCOc1ccc(Cl)cc1` , is 51.1

IC50 recorded for this compound, `O=C(COc1ccc(C(=O)/C=C/c2ccc(Cl)cc2Cl)cc1)N[C@H]1CCOC1=O` , is 26.5

IC50 recorded for this compound, `O=C(COc1ccc(C(=O)/C=C/c2ccccc2Cl)cc1)N[C@H]1CCOC1=O` , is 27.1

IC50 recorded for this compound, `O=C1OCC[C@@H]1NC(=S)SCCOc1ccccc1Cc1ccccc1` , is 32.3

IC50 recorded for this compound, `O=C1OCC[C@@H]1NC(=S)SCCOc1ccccc1` , is 53.8

IC50 recorded for this compound, `CCCCCCCCCC(=O)CC(=O)N[C@H]1CCOC1=O` , is 29.5

IC50 recorded for this compound, `O=C(COc1ccc(C(=O)/C=C/c2ccc(Br)cc2)cc1)N[C@H]1CCOC1=O` , is 51

###

Reported IC50 values follow for various compounds
System: PC-3
test-method-notes: Antiproliferative activity against human PC3 cells after 72 hrs by MTT assay
Type: functional, cell-based
test-conditions: PC-3, 72 h
Field format: number, assumed µM, no unit text.

The following compounds have reported results that may help.
>  <structure-as-smiles>
O=C1OCC[C@@H]1NC(=S)SCCOc1ccc([N+](=O)[O-])cc1

>  <target-or-test-system>
PC-3

>  <IC50 [µM]>
32.5

$$$$
>  <structure-as-smiles>
O=C(COc1ccc(C(=O)/C=C/c2ccccc2)cc1)N[C@H]1CCOC1=O

>  <target-or-test-system>
PC-3

>  <IC50 [µM]>
56.8

$$$$
>  <structure-as-smiles>
COc1ccccc1/C=C/C(=O)c1ccc(OCC(=O)N[C@H]2CCOC2=O)cc1

>  <target-or-test-system>
PC-3

>  <IC50 [µM]>
7.24

$$$$

# ---- query compound ----
IC50 recorded for this compound, `CC(C)(C)c1ccc(/C=C/C(=O)c2ccc(OCC(=O)N[C@H]3CCOC3=O)cc2)cc1` , is 10.6

###

System: PC-3
test-method-notes: Antiproliferative activity against human PC3 cells after 72 hrs by MTT assay
Type: functional, cell-based
test-conditions: PC-3, 72 h
Reported log10(IC50) values follow for various compounds
Heads up: the numbers are on a log10 scale; they represent IC50 in µM.

The following compounds have reported results that may help.
>  <structure-as-smiles>
O=C(COc1ccc(C(=O)/C=C/c2ccccc2Cl)cc1)N[C@H]1CCOC1=O

>  <log10(IC50)>
0.66

$$$$
>  <structure-as-smiles>
O=C(COc1ccc(C(=O)/C=C/c2cccc([N+](=O)[O-])c2)cc1)N[C@H]1CCOC1=O

>  <log10(IC50)>
1.75

$$$$
>  <structure-as-smiles>
O=C(COc1ccc(C(=O)/C=C/c2cccc(F)c2)cc1)N[C@H]1CCOC1=O

>  <log10(IC50)>
1.37

$$$$
>  <structure-as-smiles>
O=C(COc1ccc(C(=O)/C=C/c2ccccc2Br)cc1)N[C@H]1CCOC1=O

>  <log10(IC50)>
0.51

$$$$

log10(IC50) recorded for this compound, `O=C(COc1ccc(C(=O)/C=C/c2cccc(Br)c2)cc1)N[C@H]1CCOC1=O` , is 0.90

log10(IC50) recorded for this compound, `O=C1OCC[C@@H]1NC(=S)SCCOc1ccccc1[N+](=O)[O-]` , is 1.38

log10(IC50) recorded for this compound, `O=C(COc1ccc(C(=O)/C=C/c2ccc(Cl)cc2Cl)cc1)N[C@H]1CCOC1=O` , is 0.91

log10(IC50) recorded for this compound, `CCOc1ccccc1OCCSC(=S)N[C@H]1CCOC1=O` , is 1.38

log10(IC50) recorded for this compound, `CCCCCCCCCC(=O)CC(=O)N[C@H]1CCOC1=O` , is 1.35

log10(IC50) recorded for this compound, `O=C(COc1ccc(C(=O)/C=C/c2ccc(F)cc2)cc1)N[C@H]1CCOC1=O` , is 1.19

log10(IC50) recorded for this compound, `O=C(COc1ccc(C(=O)/C=C/c2cccc(Cl)c2)cc1)N[C@H]1CCOC1=O` , is 0.70
